Target: Human BACH1 (Homo sapiens, UniProt O14867)
Construct: 10×HIS-GP-BACH1(aa179-736)-Thrombin-FLAG; 10xHis (N); GP linker (Gly-Pro) (N); Thrombin cleavage site (C); FLAG (C)
Sequence (O14867 179-736): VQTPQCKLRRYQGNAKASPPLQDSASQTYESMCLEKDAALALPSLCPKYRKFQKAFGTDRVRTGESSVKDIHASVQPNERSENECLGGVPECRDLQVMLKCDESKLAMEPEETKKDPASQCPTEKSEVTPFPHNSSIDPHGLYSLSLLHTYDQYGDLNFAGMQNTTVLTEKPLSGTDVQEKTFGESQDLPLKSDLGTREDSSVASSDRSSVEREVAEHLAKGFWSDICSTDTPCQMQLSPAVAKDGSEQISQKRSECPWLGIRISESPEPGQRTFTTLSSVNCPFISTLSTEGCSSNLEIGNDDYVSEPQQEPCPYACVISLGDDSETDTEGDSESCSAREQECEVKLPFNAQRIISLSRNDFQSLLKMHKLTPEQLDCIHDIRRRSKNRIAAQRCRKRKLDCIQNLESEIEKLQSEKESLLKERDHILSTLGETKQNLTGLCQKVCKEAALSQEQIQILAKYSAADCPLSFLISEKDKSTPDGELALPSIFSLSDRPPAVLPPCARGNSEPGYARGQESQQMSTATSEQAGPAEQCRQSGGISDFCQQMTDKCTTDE
Assay: Microscale thermophoresis (MST) assay / Bach 1 binding assay
Conditions: 10 nM fluorescently labeled BACH1(aa179-736), 25° C.
Observable: pKd
Reminder that pKd is minus the log10 of a molar concentration.

Molecule | Target Or Test System | pKd
COCCONC(=O)c1ccc2c(c1)nc(Nc1nc3ccc(C(F)(F)F)cc3o1)n2C [Example 124] | Human BACH1 (Homo sapiens, UniProt O14867) | 6.70
COCCNC(=O)c1ccc2c(c1)nc(Nc1nc3ccc(OCCOC)cc3o1)n2C [Example 56] | Human BACH1 (Homo sapiens, UniProt O14867) | 6.60
Cn1c(Nc2nc3ccccc3o2)nc2cc(C(=O)NCCOCCO)ccc21 [Example 17] | Human BACH1 (Homo sapiens, UniProt O14867) | 6.60
COCCNC(=O)c1ccc2c(c1)nc(Nc1nc3ncccc3o1)n2C [Example 112] | Human BACH1 (Homo sapiens, UniProt O14867) | 6.25

Next molecule, pKd to be filled in.
Request: Requested field: pKd. Item: Cn1c(Nc2nc3ccc(C(F)(F)F)cc3o2)nc2cc(C(=O)NCCO)ccc21 [Example 33]
Response: 6.59

* * *

Catalogue of concentration at 0.5 h readings, one per entry.
Experiment: PK study: plasma and brain levels in mice
Type: in vivo
Conditions: mouse, brain; male C57BL/6 mice, 50 mg/kg oral, 0.5 hr post dosing; read-out: Brain (ng/g) 0.5 hr
Respond numerically; units are ng/g and should not be typed.

Molecule | concentration at 0.5 h (ng/g)
Cn1c(Nc2nc3ccccc3o2)nc2cc(C(=O)NCCOCCO)ccc21 [Example 17] | 188

Request: For the molecule COCCNC(=O)c1ccc2c(c1)nc(Nc1nc3ccc(OCCOC)cc3o1)n2C [Example 56] , what concentration at 0.5 h is on record?
Response: 4230

* * *

Tested on: Human Heme Oxygenase-1 (HMOX-1)
Test: ELISA assay to measure human heme oxygenase-1 (HMOX-1) in HepG2 lysate
Assay type: cell-based
Conditions: fold change of human HMOX1 protein level relative to DMSO control, HepG2
Observable: Maximum Fold induction (fold)
All answers are understood in fold, so give the number only.

Please review the following examples before continuing.
Molecule | Target Or Test System | Meas Value
COCCOc1ccc2nc(Nc3nc4cc(C(=O)O)ccc4n3C)oc2c1 [Example 55] | Human Heme Oxygenase-1 (HMOX-1) | 15
COCCNC(=O)c1ccc2c(c1)nc(Nc1nc3cc(C)ccc3o1)n2C [Example 65] | Human Heme Oxygenase-1 (HMOX-1) | 15.42
Cn1c(Nc2nc3ccc(C(F)(F)F)cc3o2)nc2cc(C(=O)NCCOCC(C)(C)O)ccc21 [Example 42] | Human Heme Oxygenase-1 (HMOX-1) | 29

Then there is this molecule:
Request: // lookup Maximum Fold induction | system=Human Heme Oxygenase-1 (HMOX-1) | key= COCCNC(=O)c1ccc2c(c1)nc(Nc1nc3cc(OC(F)(F)F)ccc3[nH]1)n2C [Example 14]
Response: 6.25

* * *

Experiment: Kinetic solubility
Type: physicochemical
Details: Dulbecco's phosphate buffer saline (DPBS), aqueous buffer, kinetic from dmso stock, DPBS pH 7.4, 25° C., 200 μM test compound
Criterion: solubility at 16 h meeting or surpassing 3 µM. Met: 1. Not met: -1.

For orientation, consider the following solved cases.
Compound | Label Class
Cn1c(Nc2nc3ccccc3o2)nc2cc(C(=O)NCCN3CCCC3)ccc21 | 1
CC(C)C(N)C(=O)OCCOCCNC(=O)c1ccc2c(c1)nc(Nc1nc3ccccc3o1)n2C.Cl (racemic) | 1
CN(C)CC(=O)NCCNC(=O)c1ccc2c(c1)nc(Nc1nc3ccc(OC(F)(F)F)cc3o1)n2C | -1
CC1CCc2nc(Nc3nc4cc(C(=O)NOCCO)ccc4n3C)sc2C1 (centres unmarked) | 1

Request: hey, is solubility at 16 h for this one >= 3 µM? `COCCNC(=O)c1ccc2c(c1)nc(Nc1nc3ccc(OC(F)(F)F)cc3o1)n2CC1(O)COC1`
Response: -1

Request: And `COCCNC(=O)c1ccc2c(c1)nc(Nc1nc3ccc(C(F)(F)F)cc3o1)n2C` ?
Response: -1

Request: Repeat with `Cn1c(Nc2nc3cc(F)c(C(F)(F)F)cc3o2)nc2cc(C(=O)NOCCO)ccc21`
Response: -1
